Data credit: patent US7723356B2

Some molecules, each annotated with its measured Ki.
# assay-system: human muscarinic acetylcholine M3 receptor (Homo sapiens, UniProt P20309)
# Construct: expressed in transfected cells; host or cells: CHO cells (stably transfected), membrane preparation
# Sequence (P20309 whole entry): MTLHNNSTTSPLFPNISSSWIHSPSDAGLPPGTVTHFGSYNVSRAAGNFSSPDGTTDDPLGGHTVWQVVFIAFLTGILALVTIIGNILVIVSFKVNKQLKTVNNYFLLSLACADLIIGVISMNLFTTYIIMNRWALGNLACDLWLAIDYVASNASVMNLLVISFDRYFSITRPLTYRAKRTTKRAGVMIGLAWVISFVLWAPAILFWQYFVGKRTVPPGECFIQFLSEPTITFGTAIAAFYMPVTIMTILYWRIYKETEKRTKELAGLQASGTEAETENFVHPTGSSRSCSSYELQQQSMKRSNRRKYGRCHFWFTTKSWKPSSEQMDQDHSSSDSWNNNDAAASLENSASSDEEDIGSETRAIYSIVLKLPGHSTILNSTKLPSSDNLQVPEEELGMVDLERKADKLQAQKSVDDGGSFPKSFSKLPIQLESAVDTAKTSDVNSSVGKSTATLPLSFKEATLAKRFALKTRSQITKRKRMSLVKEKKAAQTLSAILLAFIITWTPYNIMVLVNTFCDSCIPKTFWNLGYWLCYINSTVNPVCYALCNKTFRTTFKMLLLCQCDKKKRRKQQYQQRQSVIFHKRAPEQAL
# procedure-text: competitive filtration binding assay with [3H] n-methyl scopolamine (NMS)
# stated-conditions: M3 Ki, membranes from CHO cells stably transfected with human M3 receptor; [3H]NMS 0.25 nM; 17 hours at room temperature; Cheng-Prusoff correction
metric-name: Ki (nM)

>>> value("Cc1ccc(C(O)(C(=O)O[C@H]2C[N+]3(CC(=O)Nc4ccon4)CCC2CC3)c2ccc(C)cc2)cc1 [Example 2]")
1.4
>>> value("CC(C(=O)O[C@H]1C[N+]2(CC(=O)Nc3ccon3)CCC1CC2)(c1ccccc1)c1ccccc1 [Example 4]")
0.65
>>> value("O=C(C[N+]12CCC(CC1)[C@@H](OC(=O)C(O)(c1ccccc1)C1CCCCC1)C2)Nc1ccon1 (some centres unmarked) [Example 8]")
0.75
>>> value("O=C(C[N+]12CCC(CC1)[C@@H](OC(=O)C(c1ccccc1)c1ccccc1)C2)Nc1ccon1 [Example 5]")
0.63
>>> value("O=C(C[N+]12CCC(CC1)[C@@H](OC(=O)C(O)(c1ccccc1Cl)c1ccccc1Cl)C2)Nc1ccon1 [Example 1]")
2.3
